I'd appreciate it if you could supply abundance fitness values for the items below.
B1: Zinc finger homeobox protein 4, residues 2086 to 2141; numbered along this chain, Q86UP3 (parent)
chain: RPRTRITDDQLKILRAYFDINNSPSEEQIQEMAEKSGLSQKVIKHWFRNTLFKERQ

# Variants of: B1
# test: abundance fitness (aPCA) (normalised: wild type 0, dead -1); higher = more abundant; growth selection in yeast, the domain comes from the species named
# details: Homo sapiens
Hey, just send me the number, nothing else.

Give the value of abundance fitness reported for the following: K41M
-0.146

Give the value of abundance fitness reported for the following: K44E
-0.031

Give the value of abundance fitness reported for the following: E26C
-0.211

Give the value of abundance fitness reported for the following: E34T
0.023

Give the value of abundance fitness reported for the following: V42F
0.007

Give the value of abundance fitness reported for the following: R55Q
-0.028

Give the value of abundance fitness reported for the following: E54K
-0.169

Give the value of abundance fitness reported for the following: W46E
-0.141

Give the value of abundance fitness reported for the following: P24C
-0.462

Give the value of abundance fitness reported for the following: E27Y
-0.391

Give the value of abundance fitness reported for the following: I20Q
0.054

Give the value of abundance fitness reported for the following: M32S
-0.564

Give the value of abundance fitness reported for the following: K35D
-0.375

Give the value of abundance fitness reported for the following: E34F
-0.392

Give the value of abundance fitness reported for the following: L38W
-0.666

Give the value of abundance fitness reported for the following: S39K
0.081

Give the value of abundance fitness reported for the following: W46Y
0.001

Give the value of abundance fitness reported for the following: L38F
-0.793

Give the value of abundance fitness reported for the following: E26V
-0.056

Give the value of abundance fitness reported for the following: H45W
0.023

Give the value of abundance fitness reported for the following: R55W
-0.215

Give the value of abundance fitness reported for the following: K41C
0.032
